- ASSAY_EXPLANATION: Single ascending dose study NP10679-101, plasma pharmacokinetics
- Assay type: in vivo, human
- MEASUREMENT_CONDITIONS: human, plasma, iv, 50 mg
REPORTED_METRIC: AUC(0-inf) (ng·h/mL)
One number for each entry, in ng·h/mL.

Summary for this molecule, O=C1CCc2cc(OC[C@H](O)CN3CCN(c4ccc(C(F)(F)F)cc4)CC3)ccc2N1 : AUC(0-inf) is 4680

====

- ASSAY_EXPLANATION: Single ascending dose study NP10679-101, plasma pharmacokinetics
- Type: in vivo, human
- MEASUREMENT_CONDITIONS: human, plasma, iv, 150 mg, VSS, SAD, single IV infusion 150 mg, mean ± SD
REPORTED_METRIC: Vd (L)
One number for each entry, in L.

response.value for O=C1CCc2cc(OC[C@H](O)CN3CCN(c4ccc(C(F)(F)F)cc4)CC3)ccc2N1 [NP10679] (field: Vd) = 250
